target or system: Jurkat-hTIGIT-NFAT-CD226细胞上过表达的人TIGIT (human)
Sequence (Q495A1 whole entry): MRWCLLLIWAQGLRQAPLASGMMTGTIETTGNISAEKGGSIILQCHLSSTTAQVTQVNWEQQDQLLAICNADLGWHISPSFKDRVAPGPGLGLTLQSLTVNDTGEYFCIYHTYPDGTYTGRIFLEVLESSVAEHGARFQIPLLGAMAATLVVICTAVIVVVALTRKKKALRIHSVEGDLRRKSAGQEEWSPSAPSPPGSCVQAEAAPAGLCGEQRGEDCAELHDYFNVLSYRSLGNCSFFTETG
protocol: cell-based or functional assay
Entries and their Max RLU
# number only, unit RLU dropped from output

Look over these answered cases.
Query block: Reported Max RLU, binder 人源化抗TIGIT抗体A4 (antibody, human IgG1, kappa, V domains shown, Humanized) VH: QLQLVQSGAEVKKPGASVKVSCKASGYSFTDYNMNWVRQAPGQSLEWIGVINPNHGTISYNQKFKGRVTMTRDQSTSTAYMELNSLRSEDTAVYYCANNWDVWYFDVWGQGTLVTVSS VL: DIQMTQSPSSLSASVGDRVTITCRPSENIYSYLAWYQQKPGNSPKLLVYNAKALAEGVPSRFSGSGSGTQFTLTISSLQPEDFATYYCQHHFGAPWTFGGGTKVEIKR : ____
Result block: 8810

Query block: Reported Max RLU, binder 阳性对照抗体P1 (antibody, human IgG1, kappa, V domains shown, Positive control anti-TIGIT antibody) VH: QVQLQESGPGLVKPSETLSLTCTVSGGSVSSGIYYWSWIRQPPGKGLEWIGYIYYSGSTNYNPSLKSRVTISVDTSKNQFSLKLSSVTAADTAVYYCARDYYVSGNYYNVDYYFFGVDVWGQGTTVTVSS VL: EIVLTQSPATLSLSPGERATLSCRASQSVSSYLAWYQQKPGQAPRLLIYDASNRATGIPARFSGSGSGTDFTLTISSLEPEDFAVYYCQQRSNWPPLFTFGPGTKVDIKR : ____
Result block: 10500

***
Query block: Reported Max RLU, binder 人源化抗TIGIT抗体A3 (antibody, human IgG1, kappa, V domains shown, Humanized) VH: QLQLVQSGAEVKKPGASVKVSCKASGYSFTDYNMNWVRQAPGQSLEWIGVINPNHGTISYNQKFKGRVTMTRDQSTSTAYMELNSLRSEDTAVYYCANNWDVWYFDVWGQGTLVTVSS VL: DIQMTQSPSSLSASVGDRVTITCRPSENIYSYLAWYQQKPGNAPKLLVYNAKALAEGVPSRFSGSGSGTQFTLTISSLQPEDFATYYCQHHFGAPWTFGQGTKVEIKR : ____
Result block: 9370

Measured values drawn from patent CN114907476A for this set.
